Readings of pKi for the listed compounds
Biological target: Alpha-1B adrenergic receptor (Homo sapiens)
Experiment: Ability to displace beta ([125I]-iodo-4-hydroxyphenyl)-ethylamino methyl tetralone from human cloned Alpha-1b adrenergic receptor stably expressed in LM cells.
Type: cell-based
// field semantics: pKi = negative decimal log of concentration (mol/L)

Cc1ccc2c(c1)oc(=O)n2C1CCN(CCCCN2C(=O)c3ccccc3S2(=O)=O)CC1 6.52
Cc1cc(C)c2oc(=O)n(C3CCN(CCCCN4C(=O)c5ccccc5S4(=O)=O)CC3)c2c1 6.97
O=C1c2ccccc2S(=O)(=O)N1CCCCN1CCC(n2c(=O)oc3cc(F)ccc32)CC1 8.14

Reported pKi (Alpha-1B adrenergic receptor (Homo sapiens)) for entry "O=C1c2ccccc2S(=O)(=O)N1CCCCN1CCC(n2c(=O)oc3cc4c(cc32)CCCC4)CC1" is 6.17

Reported pKi (Alpha-1B adrenergic receptor (Homo sapiens)) for entry "COc1ccc2c(c1)oc(=O)n2C1CCN(CCCCN2C(=O)c3ccccc3S2(=O)=O)CC1" is 5.78

Reported pKi (Alpha-1B adrenergic receptor (Homo sapiens)) for entry "CSc1ccc2c(c1)C(=O)N(CCCCN1CCC(n3c(=O)oc4ccccc43)CC1)S2(=O)=O" is 8.00

Reported pKi (Alpha-1B adrenergic receptor (Homo sapiens)) for entry "COc1ccc2c(c1)C(=O)N(CCCCN1CCC(n3c(=O)oc4ccccc43)CC1)S2(=O)=O" is 7.82

Reported pKi (Alpha-1B adrenergic receptor (Homo sapiens)) for entry "O=C1c2ccccc2C(=O)N1CCCCN1CCC(n2c(=O)[nH]c3ccccc32)CC1" is 8.52

###

Target: Alpha-1A adrenergic receptor (Homo sapiens, UniProt P35348)
Sequence (P35348 whole entry): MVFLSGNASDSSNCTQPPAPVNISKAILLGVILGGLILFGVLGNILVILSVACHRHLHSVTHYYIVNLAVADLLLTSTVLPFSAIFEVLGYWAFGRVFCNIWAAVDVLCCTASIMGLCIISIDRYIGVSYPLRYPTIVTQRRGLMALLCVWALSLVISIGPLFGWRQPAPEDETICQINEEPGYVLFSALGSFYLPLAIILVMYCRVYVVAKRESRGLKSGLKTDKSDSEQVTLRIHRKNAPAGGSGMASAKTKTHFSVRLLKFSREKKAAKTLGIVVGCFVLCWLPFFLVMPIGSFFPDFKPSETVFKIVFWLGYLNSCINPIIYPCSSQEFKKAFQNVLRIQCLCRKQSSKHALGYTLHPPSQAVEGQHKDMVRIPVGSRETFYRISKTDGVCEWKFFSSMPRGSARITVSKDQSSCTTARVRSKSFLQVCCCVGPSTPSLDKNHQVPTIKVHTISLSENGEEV
Test: Ability to displace beta ([125I]-iodo-4-hydroxyphenyl)-ethylamino methyl tetralone from human cloned Alpha-1a adrenergic receptor stably expressed in Chinese Hamster Ovary (CHO) cells
Assay type: cell-based
pKi: −log10 of the molar value.
Where pKi equals or exceeds 9, the correct label is t; where it does not, the label is f.

O=C1c2ccccc2C(=O)N1CCCCN1CCC(n2c(=O)[nH]c3ccccc32)CC1 t
Cc1ccc2c(c1)oc(=O)n2C1CCN(CCCCN2C(=O)c3ccccc3S2(=O)=O)CC1 f
COc1ccc2c(c1)oc(=O)n2C1CCN(CCCCN2C(=O)c3ccccc3S2(=O)=O)CC1 f
Cc1cccc2oc(=O)n(C3CCN(CCCCN4C(=O)c5ccccc5S4(=O)=O)CC3)c12 f

Attention now shifts to the item below.
Q: Answer whether pKi of "O=C1c2ccccc2S(=O)(=O)N1CCCCN1CCC(n2c(=O)oc3cc4c(cc32)CCCC4)CC1" is greater than or equal to 9.
A: f

###

Target: Alpha-1B adrenergic receptor (Homo sapiens)
Sequence (P35368 whole entry): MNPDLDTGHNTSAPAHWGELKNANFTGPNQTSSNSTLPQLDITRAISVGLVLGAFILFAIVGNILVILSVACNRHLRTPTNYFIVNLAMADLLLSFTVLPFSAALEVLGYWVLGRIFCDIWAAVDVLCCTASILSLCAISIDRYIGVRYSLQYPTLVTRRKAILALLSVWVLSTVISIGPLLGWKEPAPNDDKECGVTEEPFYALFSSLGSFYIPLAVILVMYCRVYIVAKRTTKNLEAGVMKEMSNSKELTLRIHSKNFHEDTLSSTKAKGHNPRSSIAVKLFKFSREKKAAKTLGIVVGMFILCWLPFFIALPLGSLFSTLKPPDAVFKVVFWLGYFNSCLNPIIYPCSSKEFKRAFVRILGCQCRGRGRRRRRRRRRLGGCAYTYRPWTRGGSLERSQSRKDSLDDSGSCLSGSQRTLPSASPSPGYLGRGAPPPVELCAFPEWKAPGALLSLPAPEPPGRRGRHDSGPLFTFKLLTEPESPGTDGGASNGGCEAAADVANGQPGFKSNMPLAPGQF
Test: Ability to displace beta ([125I]-iodo-4-hydroxyphenyl)-ethylamino methyl tetralone from human cloned Alpha-1b adrenergic receptor stably expressed in LM cells.
Format: cell-based
pKi: −log10 of the molar value.
Where pKi equals or exceeds 7, the correct label is Criterion met; where it does not, the label is Criterion not met.

COC(=O)c1ccc2c(c1)oc(=O)n2C1CCN(CCCCN2C(=O)c3ccccc3S2(=O)=O)CC1 Criterion not met
Cc1ccc2c(c1)C(=O)N(CCCCN1CCC(n3c(=O)oc4ccccc43)CC1)S2(=O)=O Criterion met
O=C1c2cc(F)ccc2S(=O)(=O)N1CCCCN1CCC(n2c(=O)oc3ccccc32)CC1 Criterion met

Q: Answer whether pKi of "O=C1c2ccccc2S(=O)(=O)N1CCCCN1CCC(n2c(=O)oc3ccccc32)CC1" is greater than or equal to 7.
A: Criterion met

Q: Answer whether pKi of "Cc1ccc2oc(=O)n(C3CCN(CCCCN4C(=O)c5ccccc5S4(=O)=O)CC3)c2c1" is greater than or equal to 7.
A: Criterion met

Q: Answer whether pKi of "Cc1cccc2oc(=O)n(C3CCN(CCCCN4C(=O)c5ccccc5S4(=O)=O)CC3)c12" is greater than or equal to 7.
A: Criterion not met
